test: chemical genetic growth profiling, strain panel (AID 1159580);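 further: tested at 20 µM; growth read once vehicle control cultures reached saturation at 30 °C; 1 = growth at the plate median or of vehicle wells; lower values mean less growth of the strain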; settings: S. cerevisiae deletion strains, growth OD, locus YAL013W, strain DEP1, hits give low values
The whole screen tested about 5,500 compounds, of which about 2,000 (36%) were called active. Roughly 18% stayed inconclusive and do not appear here. Some of the results follow.
Measured normalized growth, listed per entry for reference.
I only need the number, thanks.

| Compound | normalized growth |
| --- | --- |
| O=C(O)/C=C1\CCCc2ccccc2C1O (stereo not drawn) | 1.01 |
| COC(=O)Nc1nc2ccc(C(=O)c3cccs3)cc2[nH]1 | 1.03 |

Moving on to the next compound.
QUERY: Item CCC(C)C(=O)O[C@H]1[C@H](O)C2C(CN3CC(C)CCC3[C@@]2(C)O)C2C[C@]34O[C@]5(O)C(OC(=O)C(C)(O)CC)CC[C@@]3(C)C5C(OC(C)=O)[C@@H](OC(C)=O)C4[C@@]21O (stereo partly drawn) has what recorded normalized growth?
RESULT: 1.01

====

experiment: chemical genetic growth profiling, strain panel (AID 1159580); conditions: S. cerevisiae deletion strains, growth OD, locus YKL067W, strain YNK1, hits give low values
The whole screen tested about 5,500 compounds, of which about 2,000 (36%) were called active. Not shown: some 18% with an inconclusive outcome. The list shows a part of the results.
Parameter measured: normalized growth
I only need the number, thanks.

Study these solved cases before continuing.
| Molecule | Readout value |
| --- | --- |
| COC(=O)c1cnn(-c2c(Cl)cccc2Cl)c1C=C(C#N)C#N | 0.955 |
| Fc1cccc(Cl)c1CSc1n[nH]c(-c2cc(C(F)(F)F)cc(C(F)(F)F)c2)n1 | 0.916 |
| O=S(=O)(NC(=S)Nc1ccc(Cl)c(Cl)c1)c1ccccc1 | 0.995 |
| O=C(NCC1COc2ccccc2O1)c1ccc(Cl)cc1 (stereo unspecified) | 0.842 |
| O=[N+]([O-])c1cnc(Sc2nnc(SCc3cccc(C(F)(F)F)c3)s2)s1 | 0.105 |

QUERY: Item Cc1nc(-c2cccnc2)nc(NCc2ccccc2)c1Cl has what recorded normalized growth?
RESULT: 0.89

QUERY: Item O=C(N/N=C\c1cc(Br)ccc1O)c1ccccc1Oc1ccccc1 has what recorded normalized growth?
RESULT: 0.923

QUERY: Item S=C(NNC(=S)NC1CC2C=CC1C2)Nc1ccc(Br)c(Cl)c1 (stereo unspecified) has what recorded normalized growth?
RESULT: 0.94

QUERY: Item Cc1ccc(C)c(CSc2nc(C3CCCCC3)c(C#N)c(=O)[nH]2)c1 has what recorded normalized growth?
RESULT: 0.98

QUERY: Item Clc1cc(Cl)cc(-c2nc(SCc3ccc(Cl)cc3Cl)n[nH]2)c1 has what recorded normalized growth?
RESULT: 0.882

QUERY: Item Brc1ccc2[nH]c3c(c2c1)CCC3 has what recorded normalized growth?
RESULT: 0.723

====

Measured normalized growth, listed per entry for reference.
assay: chemical genetic growth profiling, strain panel (AID 1159580); settings: S. cerevisiae deletion strains, growth OD, locus YMR129W, hits give low values
The whole screen tested about 5,500 compounds, of which about 2,000 (36%) were called active. Inconclusive results (about 18%) are left out. Some of the results follow.
I only need the number, thanks.

Study these solved cases before continuing.
| Compound | normalized growth |
| --- | --- |
| NC(N)=N/N=C/c1c(Cl)cccc1Cl | 0.984 |
| CO[C@@]12[C@@H]3NC3CN1C1=C(C(=O)C(N)=C(C)C1=O)[C@@H]2COC(N)=O (stereo partly specified) | 0.975 |

QUERY: Item COc1ccc2c(c1)c(CC(=O)O)c(C)n2C(=O)c1ccc(Cl)cc1 has what recorded normalized growth?
RESULT: 0.987

QUERY: Item CC1(C)CC(O)C2(C)CCC3(C)C(=CCC4C5(C)CCC(O)C(C)(CO)C5CCC43C)C2C1 (stereo unspecified) has what recorded normalized growth?
RESULT: 1.02

QUERY: Item O=C(CNC(=O)c1ccc(Cl)cc1)NO has what recorded normalized growth?
RESULT: 1.01

QUERY: Item CC(=O)NC(C(=O)O)C(C)(C)SN=O (stereo unspecified) has what recorded normalized growth?
RESULT: 0.993

QUERY: Item Nc1c2c(nc3ccccc13)CCCC2 has what recorded normalized growth?
RESULT: 0.99

QUERY: Item CCOc1ccc2nc3cc(N)ccc3c(N)c2c1 has what recorded normalized growth?
RESULT: 0.659

QUERY: Item COc1cc(C(=O)O[C@H]2CC[C@@]3(C)[C@@H]4CC[C@H]5[C@]6(O)C[C@H](O)[C@@]7(O)[C@@H](CN8C[C@@H](C)CC[C@H]8[C@@]7(C)O)[C@]6(O)C[C@@]53O[C@]24O)cc(OC)c1OC has what recorded normalized growth?
RESULT: 1

QUERY: Item N=C(N)SCCN has what recorded normalized growth?
RESULT: 1.02

QUERY: Item COc1ccc2c3c([nH]c2c1)C(C)=NCC3 has what recorded normalized growth?
RESULT: 0.981

====

assay: chemical genetic growth profiling, strain panel (AID 1159580);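 further: tested at 20 µM; growth read once vehicle control cultures reached saturation at 30 °C; 1 = growth at the plate median or of vehicle wells; lower values mean less growth of the strain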; conditions: S. cerevisiae deletion strains, growth OD, locus YHR013C, strain ard1
Among all 5,500 compounds or so, about 2,000 (36%) were called active. About 18% were inconclusive and are not listed. Rule as the data show it: active = normalized growth mostly below about 0.91 (no sharp cut-off); inconclusive = no clear call, values can overlap the other calls; inactive = mostly above about 0.92. Some of the results follow.
Thanks in advance; please answer with one of these: Y for active, N for inactive

| Molecule | Category |
| --- | --- |
| OC(CCN1CCCC1)(c1ccccc1)C1CCCCC1 (stereo unspecified) | N |
| O=c1[nH]cc(F)c(=O)[nH]1 | N |
| CC1(C)CCC2(C(=O)O)CCC3(C)C(=CCC4C5(C)CCC(O)C(C)(C)C5C(O)CC43C)C2C1 (stereo unspecified) | N |
| COC(=O)C[C@H]1C(C)(C)C2(O)OC34CC2C(=O)[C@]1(C)C3CC[C@]1(C)C4=CC(=O)O[C@H]1c1ccoc1 (stereo partly specified) | N |
| COc1cc(N)c(Cl)cc1C(=O)NC1CCN(Cc2ccccc2)CC1 | N |
| NNc1nncc2ccccc12 | N |
| COc1ccc2c(c1)c(CC(=O)OCC(=O)O)c(C)n2C(=O)c1ccc(Cl)cc1 | N |
| NCCC(=O)N[C@@H](Cc1cnc[nH]1)C(=O)O | N |

QUERY: Kindly provide the recorded test outcome for the following molecule: CC1(C)CC[C@@]2(C(=O)O)C(C1)C1=CCC3[C@@]4(C)CC[C@H](O)C(C)(C)C4CC[C@@]3(C)[C@]1(C)C[C@@H]2O (stereo partly specified)
RESULT: N

QUERY: Kindly provide the recorded test outcome for the following molecule: CCOc1ccc2nc3cc(N)ccc3c(N)c2c1
RESULT: Y

QUERY: Kindly provide the recorded test outcome for the following molecule: OC(CCN1CCCCC1)(c1ccccc1)C1CCCCC1 (stereo unspecified)
RESULT: N

====

experiment: chemical genetic growth profiling, strain panel (AID 1159580);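 further: tested at 20 µM; growth read once vehicle control cultures reached saturation at 30 °C; 1 = growth at the plate median or of vehicle wells; lower values mean less growth of the strain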; conditions: S. cerevisiae deletion strains, growth OD, locus YOR083W, strain WHI5
Among all 5,500 compounds or so, about 2,000 (36%) were called active. Another 18% or so got no clear call; they are omitted. No stated cut-off is given here; in the data, active means normalized growth mostly below about 0.91 (no sharp cut-off); inconclusive means no clear call, values can overlap the other calls; inactive means mostly above about 0.92. Some of the results follow.
Thanks in advance; please answer with one of these: active, inactive

| Compound | Category |
| --- | --- |
| Clc1ccccc1C(c1ccccc1)(c1ccccc1)n1ccnc1 | active |
| NNc1nncc2ccccc12 | inactive |
| COc1ccc2c3c([nH]c2c1)C(C)=NCC3 | inactive |
| Nc1c2c(nc3ccccc13)CCCC2 | inactive |

QUERY: Kindly provide the recorded test outcome for the following compound: O=C(CNC(=O)c1ccc(Cl)cc1)NO
RESULT: inactive

QUERY: Kindly provide the recorded test outcome for the following compound: Nc1c2ccccc2nc2ccccc12 (tested in a mixture with another compound)
RESULT: active

QUERY: Kindly provide the recorded test outcome for the following compound: CO[C@@]12[C@@H]3NC3CN1C1=C(C(=O)C(N)=C(C)C1=O)[C@@H]2COC(N)=O (some centres not stated)
RESULT: inactive

====

assay: chemical genetic growth profiling, strain panel (AID 1159580);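 further: tested at 20 µM; growth read once vehicle control cultures reached saturation at 30 °C; 1 = growth at the plate median or of vehicle wells; lower values mean less growth of the strain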; settings: S. cerevisiae deletion strains, growth OD, locus YJR016C, strain ILV3, hits give low values
Among all 5,500 compounds or so, about 2,000 (36%) were called active. About 18% were inconclusive and are not listed. The list shows a part of the results.
Parameter measured: normalized growth
I only need the number, thanks.

Study these solved cases before continuing.
| Compound | normalized growth |
| --- | --- |
| O=C(N/N=C\c1cc(Br)ccc1O)c1ccccc1Oc1ccccc1 | 0.979 |
| S=C(NNC(=S)NC1CC2C=CC1C2)Nc1ccc(Br)c(Cl)c1 (stereo unspecified) | 0.984 |
| Nc1ccccc1C(=O)N/N=C\c1cc(Br)ccc1O | 0.976 |
| N#Cc1c2ccccc2nc2ccccc12 | 0.816 |

QUERY: Item COc1cccc(NC(=S)NC2CC(C)CC(C)(C)C2)c1 (stereo unspecified) has what recorded normalized growth?
RESULT: 0.986

QUERY: Item Cc1ccc(C)c(CSc2nc(C3CCCCC3)c(C#N)c(=O)[nH]2)c1 has what recorded normalized growth?
RESULT: 0.989
